Sourced from ChEMBL document CHEMBL1131264

SYSTEM_TESTED: NAD(P)H dehydrogenase [quinone] 1 (Homo sapiens)
PROTOCOL_DETAILS: NQO1 inactivation assay
Parameters: concentration or dose not given beside the values
READOUT_LABEL: Enzyme activity (%)

INSERT INTO measurements (query_smiles, system_tested, readout_label, value_measured) VALUES
  ('NC(=O)OCc1c2c(n3c1CCC3)C(=O)C=C(N1CCCCC1)C2=O', 'NAD(P)H dehydrogenase [quinone] 1 (Homo sapiens)', 'Enzyme activity', 45),
  ('COC(=O)c1c(C)c2c(n1C)C(=O)C=C(OC)C2=O', 'NAD(P)H dehydrogenase [quinone] 1 (Homo sapiens)', 'Enzyme activity', 100),
  ('O=C1C(N2CCCC2)=CC(=O)c2c1c(CO)c1n2CCC1', 'NAD(P)H dehydrogenase [quinone] 1 (Homo sapiens)', 'Enzyme activity', 90),
  ('CCOC(=O)c1c2c(n(C)c1C)C(=O)C=C(OC)C2=O', 'NAD(P)H dehydrogenase [quinone] 1 (Homo sapiens)', 'Enzyme activity', 100),
  ('Cc1c(CO)c2c(n1C)C(=O)C=C(N1CCOCC1)C2=O', 'NAD(P)H dehydrogenase [quinone] 1 (Homo sapiens)', 'Enzyme activity', 100),
  ('COC1=CC(=O)c2c(c(COC(N)=O)c3n2CCC3)C1=O', 'NAD(P)H dehydrogenase [quinone] 1 (Homo sapiens)', 'Enzyme activity', 0),
  ('Cc1c(CO)c2c(n1C)C(=O)C=C(N1CCN(C)CC1)C2=O', 'NAD(P)H dehydrogenase [quinone] 1 (Homo sapiens)', 'Enzyme activity', 99),
  ('COC1=CC(=O)c2c(c(C)c(C)n2C)C1=O', 'NAD(P)H dehydrogenase [quinone] 1 (Homo sapiens)', 'Enzyme activity', 100);
